biological target: Hypoxia-inducible factor 1-alpha (Homo sapiens) (UniProt Q16665); assay: Inhibition of HIF-1 (unknown origin) expressed in human MCF7 cells co-transfected with hypoxia reporter plasmid p(HRE)3-Luc at 20 uM measured under hypoxia condition after 24 hrs by dual-luciferase reporter assay; assay type: cell-based
Sequence (Q16665 whole entry, looked up): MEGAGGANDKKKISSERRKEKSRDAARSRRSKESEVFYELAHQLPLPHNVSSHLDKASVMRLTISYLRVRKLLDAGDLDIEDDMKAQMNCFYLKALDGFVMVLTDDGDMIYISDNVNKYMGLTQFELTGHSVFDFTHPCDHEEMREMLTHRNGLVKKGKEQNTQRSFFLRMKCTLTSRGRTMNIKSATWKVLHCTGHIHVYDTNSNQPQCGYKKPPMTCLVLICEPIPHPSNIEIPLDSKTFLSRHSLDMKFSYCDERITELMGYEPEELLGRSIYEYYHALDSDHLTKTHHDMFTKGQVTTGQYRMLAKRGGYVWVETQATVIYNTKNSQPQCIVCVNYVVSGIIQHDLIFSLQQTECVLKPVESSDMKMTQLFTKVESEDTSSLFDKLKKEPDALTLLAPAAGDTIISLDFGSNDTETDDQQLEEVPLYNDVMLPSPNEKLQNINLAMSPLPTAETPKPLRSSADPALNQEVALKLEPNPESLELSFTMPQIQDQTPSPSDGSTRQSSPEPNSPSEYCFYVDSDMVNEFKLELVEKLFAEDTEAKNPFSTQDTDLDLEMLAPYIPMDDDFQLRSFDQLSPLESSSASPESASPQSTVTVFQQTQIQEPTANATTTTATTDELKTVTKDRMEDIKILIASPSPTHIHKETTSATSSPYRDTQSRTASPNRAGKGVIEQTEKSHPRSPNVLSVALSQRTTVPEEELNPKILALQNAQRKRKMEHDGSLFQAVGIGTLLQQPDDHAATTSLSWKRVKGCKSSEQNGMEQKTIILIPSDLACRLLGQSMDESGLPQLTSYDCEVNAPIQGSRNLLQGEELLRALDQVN
assay endpoint: inhibition (%)
Answers are plain numbers, in %.

Batch of 4 compounds: report inhibition for each.
1. Cc1c(C(=O)NCCN(C)C)oc2ccc(N(Cc3ccc(Cl)cc3)S(=O)(=O)c3ccc(Cl)cc3)cc12
2. Cc1c(C(=O)NCCCn2ccnc2)oc2ccc(N(Cc3ccc(Cl)cc3)S(=O)(=O)c3ccc(Cl)cc3)cc12
3. CNCCNC(=O)c1oc2ccc(N(Cc3ccccc3)S(=O)(=O)c3ccc(Cl)cc3)cc2c1C
4. Cc1c(C(=O)NCCCn2ccnc2)oc2ccc(N(Cc3ccccc3)S(=O)(=O)c3ccc(Cl)cc3)cc12

Key:
[12.7, 27, 47.3, 32.3]
